Exercise: for every item that follows, state its recorded relative viability.
Tested on: NCI-H460
Assay: relative viability (nuclei count vs DMSO), 5 days (fraction); higher = more cells survive
Conditions: first compound 0.01581 µM
One number for each entry.

Answer for every listed entry: what is its relative viability? The entries follow.
1. COc1cc2nccc(Oc3ccc(NC(=O)Nc4cc(C)on4)c(Cl)c3)c2cc1OC [Tivozanib] + COc1cc2c(Oc3ccc(NC(=O)C4(C(=O)Nc5ccc(F)cc5)CC4)cc3F)ccnc2cc1OCCCN1CCOCC1 [Foretinib] (partner 0.25 µM)
2. COc1cc2nccc(Oc3ccc(NC(=O)Nc4cc(C)on4)c(Cl)c3)c2cc1OC [Tivozanib] + Cc1cc(Nc2cc(N3CCN(C)CC3)nc(Sc3ccc(NC(=O)C4CC4)cc3)n2)n[nH]1 [Tozasertib] (partner 0.1 µM)
3. Nc1ccn([C@@H]2O[C@H](CO)[C@@H](O)[C@@H]2O)c(=O)n1 [Cytarabine] + COc1cccc2cc(-c3nc([C@H]4CC[C@H](C(=O)O)CC4)n4ncnc(N)c34)[nH]c12 [OSI-027] (partner 0.5 µM)
4. COc1cc2nccc(Oc3ccc(NC(=O)Nc4cc(C)on4)c(Cl)c3)c2cc1OC [Tivozanib] + CC(C)C[C@H](NC(=O)[C@H](Cc1ccccc1)NC(=O)c1cnccn1)B(O)O [Bortezomib] (partner 0.002 µM)

Outgoing:
1: 0.948; 2: 0.394; 3: 0.486; 4: 1.04
